Assay: Pharmacokinetic (PK) test
Assay type: in vivo, male ICR mice
Settings: male, ICR, mouse, plasma; Intravenous administration, 5 mg/kg; mice, n=3; read-out: t1/2, Mean (converted)
observation type: half-life (min)
Numbers only, in min.

Sample answers from the record:
{"columns": ["structure", "observation type", "units label", "reported value"],
 "data": [
  ["CCOCCn1c(Cl)c(/C=N/NC(=O)c2cc3cc(OC)ccc3o2)c2cc(OC)ccc21", "half-life", "min", 19.8],
  ["CCOCCn1c(Cl)c(/C=N/NC(=O)c2cc3cc(C)ccc3o2)c2cc(OC)ccc21", "half-life", "min", 16.8]
]}

Now let's try a different one.
IN: So what's the measured half-life for this one? CCOCCn1c(Cl)c(/C=N/NC(=O)c2cc3cc(C)ccc3o2)c2ccccc21
OUT: 23.4

---

Assay: Metabolic stability test in liver microsomes
Type: in vitro ADME
Conditions: Rat; +NADPH; 0.5 mg protein/mL; 37° C.
Kindly apply the following: True if Residue (%) after culturing for 30 min is less than 3%, False in every other case.

Reference set, count: 4
{"columns": ["compound", "group label"],
 "data": [
  ["CCOCCn1c(Cl)c(/C=N/NC(=O)c2cc3cc(C)ccc3o2)c2cc(OC)ccc21", "False"],
  ["CCOCCn1c(Cl)c(/C=N/NC(=O)c2cc3cc(C)ccc3o2)c2ccccc21", "False"],
  ["O=C1CC2(CCCC2)CC(=O)N1CCCCN1CCN(c2ncccn2)CC1 [Buspirone, buspirone, reference compound]", "True"],
  ["CCOCCn1c(Cl)c(/C=N/NC(=O)c2cc3cc(OC)ccc3o2)c2cc(OC)ccc21", "False"]
]}

IN: Confirm or reject: Residue (%) after culturing for 30 min of CCOC(=O)Cn1c(Cl)c(/C=N/NC(=O)c2cc3cc(C)ccc3o2)c2ccccc21 lies strictly below 3%
OUT: True

---

Assay: Metabolic stability test in liver microsomes
Format: in vitro ADME
Details: Human; −NADPH; 0.5 mg protein/mL; 37° C.
Quick rule for you: Residue (%) after culturing for 30 min at 80% or higher means MET, lower means NOT MET.

Reference set, count: 5
{"columns": ["molecule", "group label"],
 "data": [
  ["CCOCCn1c(Cl)c(/C=N/NC(=O)c2cc3cc(C)ccc3o2)c2ccccc21 [Example 4]", "NOT MET"],
  ["Cc1ccc2oc(C(=O)N/N=C/c3c(Cl)n(C)c4ccccc34)cc2c1 [Example 2]", "NOT MET"],
  ["CCOCCn1c(Cl)c(/C=N/NC(=O)c2cc3cc(C)ccc3o2)c2cc(OC)ccc21 [Example 8]", "MET"],
  ["CCOC(=O)Cn1c(Cl)c(/C=N/NC(=O)c2cc3cc(C)ccc3o2)c2ccccc21 [Example 3]", "NOT MET"],
  ["CCOCCn1c(Cl)c(/C=N/NC(=O)c2cc3cc(OC)ccc3o2)c2cc(OC)ccc21 [Example 15]", "MET"]
]}

IN: API: above_or_equal(metric=Residue (%) after culturing for 30 min, cutoff=80%) for item O=C1CC2(CCCC2)CC(=O)N1CCCCN1CCN(c2ncccn2)CC1 [Buspirone, buspirone, reference compound]
OUT: MET

---

Assay: Stability test in plasma
Assay type: in vitro ADME
Parameters: dose or concentration left out as unconfirmed
Conditions: Human plasma; 37° C.
Description: In order to test the stability (in vivo) of the Example compounds according to the present invention, the compounds of Examples 2, 3, 4, 8 and 15 were administered intravenously, and plasma concentrations over time were observed. In addition, procaine was used as a positive control. Plasma stability was measured three times by administering the test compound at a concentration […] to human, rat, or mouse plasma (90 μL) at 37° C. Results thereof are shown in Table below and FIGS. 3A to 3E.
Kindly apply the following: 1 if Residue % (180 minutes elapsed), Mean is less than 30%, -1 in every other case.

{"columns": ["compound", "group label"],
 "data": [
  ["CCN(CC)CCOC(=O)c1ccc(N)cc1 [Procaine, procaine, reference compound]", 1],
  ["CCOCCn1c(Cl)c(/C=N/NC(=O)c2cc3cc(C)ccc3o2)c2ccccc21 [Example 4]", -1],
  ["CCOC(=O)Cn1c(Cl)c(/C=N/NC(=O)c2cc3cc(C)ccc3o2)c2ccccc21 [Example 3]", -1]
]}

IN: Confirm or reject: Residue % (180 minutes elapsed), Mean of CCOCCn1c(Cl)c(/C=N/NC(=O)c2cc3cc(OC)ccc3o2)c2cc(OC)ccc21 [Example 15] lies strictly below 30%
OUT: 1

IN: Confirm or reject: Residue % (180 minutes elapsed), Mean of Cc1ccc2oc(C(=O)N/N=C/c3c(Cl)n(C)c4ccccc34)cc2c1 [Example 2] lies strictly below 30%
OUT: -1

IN: Confirm or reject: Residue % (180 minutes elapsed), Mean of CCOCCn1c(Cl)c(/C=N/NC(=O)c2cc3cc(C)ccc3o2)c2cc(OC)ccc21 [Example 8] lies strictly below 30%
OUT: 1
